# target: T1, recombinant human ErbB2 extracellular domain (ErbB2-ECD) (human, UniProt P04626 23-652)
# T1 construct: extracellular domain; Coated on plates or used biotin-labeled in solution (capture ELISA); also called Human ErbB2-ECD; rhErbB2
# test.method.notes: capture ELISA, recombinant ErbB2-ECD
# EC50 annotations
Only the number, expressed in nM, is required.

>>> recorded_number("5G9.v10 humanized antibody (antibody, V domains shown, VH.3/VL.v1, back mutations Q73K/0) VH: EVQLVQSGAEVKKPGSSVKVSCKTSGYTFSSYTIHWVRQAPGQGLEWIGYINPSSDYTAYNQKFRDRATLTADKSTNTAYMELSSLRSEDTAVYYCARASAFSLDFWGQGTLVTVSS VL: DIQMTQSPSSLSASVGDRVTITCKASHDIDRYIAWYQHKPGKGPKLLIHYTSTLQPGIPSRFSGSGSGRDYTLTISSLQPEDVATYYCLNYDNLLWTFGQGTKVEIK")
0.029

# EC50 of 5G9.v11 humanized antibody (antibody, V domains shown, VH.4/VL.v1, back mutations N76S/0) VH: EVQLVQSGAEVKKPGSSVKVSCKTSGYTFSSYTIHWVRQAPGQGLEWIGYINPSSDYTAYNQKFRDRATLTADQSTSTAYMELSSLRSEDTAVYYCARASAFSLDFWGQGTLVTVSS VL: DIQMTQSPSSLSASVGDRVTITCKASHDIDRYIAWYQHKPGKGPKLLIHYTSTLQPGIPSRFSGSGSGRDYTLTISSLQPEDVATYYCLNYDNLLWTFGQGTKVEIK = 0.081

For record 5G9.v6 humanized antibody (antibody, V domains shown, VH.v1/VL.5, back mutations 0/R69T) VH: EVQLVQSGAEVKKPGSSVKVSCKTSGYTFSSYTIHWVRQAPGQGLEWIGYINPSSDYTAYNQKFRDRATLTADQSTNTAYMELSSLRSEDTAVYYCARASAFSLDFWGQGTLVTVSS VL: DIQMTQSPSSLSASVGDRVTITCKASHDIDRYIAWYQHKPGKGPKLLIHYTSTLQPGIPSRFSGSGSGTDYTLTISSLQPEDVATYYCLNYDNLLWTFGQGTKVEIK the listed EC50 is 0.044
